test.summary: Intraduodenal bioavailability of zanamivir from glycerol and PBS formulations, enhancer pre-dose (Example 6)
experimental.setup: male, Sprague-Dawley, rat, in vivo, 1.5 mg/animal, Plasma concentration, ID 1.5 mg/animal, 50 µL PBS, 50 µL blank Capmul MCM L8 -2 hr; 0.5 hr; mean
observation.type: concentration at 0.5 hr (ng/mL)
Use ng/mL as the unit, but write only the number.

Inquiry: Looking for the measured concentration at 0.5 hr of CC(=O)NC1C(NC(=N)N)C=C(C(=O)O)OC1C(O)C(O)CO (stereo not shown) , can you help?
Reply text: 38.5

----------
test.summary: Intravenous and intraduodenal bioavailability of zanamivir from three formulations (Example 5)
experimental.setup: male, Sprague-Dawley, rat, in vivo, 1.5 mg/animal, Plasma concentration, ID 1.5 mg/animal, Glycerol 50 µL; 2.0 hr; individual rats
observation.type: concentration at 2 hr (ng/mL)
Use ng/mL as the unit, but write only the number.

Inquiry: Looking for the measured concentration at 2 hr of CC(=O)NC1C(NC(=N)N)C=C(C(=O)O)OC1C(O)C(O)CO (stereo not shown) , can you help?
Reply text: 52.1

----------
test.summary: Intravenous and intraduodenal bioavailability of zanamivir from three formulations (Example 5)
experimental.setup: male, Sprague-Dawley, rat, in vivo, 1.5 mg/animal, Plasma concentration, ID 1.5 mg/animal, Glycerol 50 µL; 1.5 hr; mean
observation.type: concentration at 1.5 hr
Show the value, then the unit it is measured in.

Inquiry: Looking for the measured concentration at 1.5 hr of CC(=O)NC1C(NC(=N)N)C=C(C(=O)O)OC1C(O)C(O)CO (stereo not shown) , can you help?
Reply text: 93 ng/mL

----------
test.summary: Intravenous and intraduodenal (bolus) bioavailability of zanamivir from Capmul MCM L8 25, 50, 75 µL (Example 7)
experimental.setup: male, Sprague-Dawley, rat, in vivo, iv, 1.5 mg, tmax, IV 1.5 mg/animal, Normal Saline, Ex.7; individual rats
observation.type: Tmax (h)
Use h as the unit, but write only the number.

Inquiry: Looking for the measured Tmax of CC(=O)NC1C(NC(=N)N)C=C(C(=O)O)OC1C(O)C(O)CO (stereo not shown) [Zanamivir] , can you help?
Reply text: 0

----------
test.summary: Intraduodenal bioavailability of zanamivir from glycerol and PBS formulations, enhancer pre-dose (Example 6)
experimental.setup: male, Sprague-Dawley, rat, in vivo, 1.5 mg/animal, Plasma concentration, ID 1.5 mg/animal, 150 µL Glycerol; 1.0 hr; individual rats
observation.type: concentration at 1 hr (ng/mL)
Use ng/mL as the unit, but write only the number.

Inquiry: Looking for the measured concentration at 1 hr of CC(=O)NC1C(NC(=N)N)C=C(C(=O)O)OC1C(O)C(O)CO (stereo not shown) [Zanamivir] , can you help?
Reply text: 52.5

----------
test.summary: Intraduodenal bioavailability of zanamivir from glycerol and PBS formulations, enhancer pre-dose (Example 6)
experimental.setup: male, Sprague-Dawley, rat, in vivo, 1.5 mg/animal, Plasma concentration, ID 1.5 mg/animal, 50 µL PBS, 150 µL blank glycerol -2 hr; 1.0 hr; individual rats
observation.type: concentration at 1 hr (ng/mL)
Use ng/mL as the unit, but write only the number.

Inquiry: Looking for the measured concentration at 1 hr of CC(=O)NC1C(NC(=N)N)C=C(C(=O)O)OC1C(O)C(O)CO (stereo not shown) [Zanamivir] , can you help?
Reply text: 36.4

----------
test.summary: Intraduodenal bioavailability of zanamivir from glycerol and PBS formulations, enhancer pre-dose (Example 6)
experimental.setup: male, Sprague-Dawley, rat, in vivo, 1.5 mg/animal, Plasma concentration, ID 1.5 mg/animal, 50 µL PBS, 50 µL blank Capmul MCM L8 -2 hr; 2.0 hr; mean
observation.type: concentration at 2 hr (ng/mL)
Use ng/mL as the unit, but write only the number.

Inquiry: Looking for the measured concentration at 2 hr of CC(=O)NC1C(NC(=N)N)C=C(C(=O)O)OC1C(O)C(O)CO (stereo not shown) , can you help?
Reply text: 33.8

----------
test.summary: Varying zanamivir levels at fixed 50 µL Capmul MCM L8, intraduodenal administration
Type: in vivo, male Sprague-Dawley rats
experimental.setup: male, Sprague-Dawley, rat, plasma; ID, 3.0 mg zanamivir in 50 µL Capmul MCM L8
observation.type: Tmax (min)
Use min as the unit, but write only the number.

Inquiry: Looking for the measured Tmax of CC(=O)NC1C(NC(=N)N)C=C(C(=O)O)OC1C(O)C(O)CO (stereo not shown) , can you help?
Reply text: 8.4

----------
test.summary: Intravenous and intraduodenal (bolus) bioavailability of zanamivir from Capmul MCM L8 25, 50, 75 µL (Example 7)
experimental.setup: male, Sprague-Dawley, rat, in vivo, 1.5 mg/animal, Plasma concentration, ID bolus 1.5 mg/animal, 25 µL Capmul MCM L8; 0.25 hr; mean
observation.type: concentration at 0.25 hr (ng/mL)
Use ng/mL as the unit, but write only the number.

Inquiry: Looking for the measured concentration at 0.25 hr of CC(=O)NC1C(NC(=N)N)C=C(C(=O)O)OC1C(O)C(O)CO (stereo not shown) [Zanamivir] , can you help?
Reply text: 1180

----------
test.summary: Intravenous and intraduodenal bioavailability of zanamivir from three formulations (Example 5)
experimental.setup: male, Sprague-Dawley, rat, in vivo, 1.5 mg/animal, Plasma concentration, ID 1.5 mg/animal, Glycerol 50 µL; 0.83 hr; individual rats
observation.type: concentration at 0.83 hr (ng/mL)
Use ng/mL as the unit, but write only the number.

Inquiry: Looking for the measured concentration at 0.83 hr of CC(=O)NC1C(NC(=N)N)C=C(C(=O)O)OC1C(O)C(O)CO (stereo not shown) [Zanamivir] , can you help?
Reply text: 123

----------
test.summary: Intravenous and intraduodenal (bolus) bioavailability of zanamivir from Capmul MCM L8 25, 50, 75 µL (Example 7)
experimental.setup: male, Sprague-Dawley, rat, in vivo, 1.5 mg/animal, Plasma concentration, ID bolus 1.5 mg/animal, 50 µL Capmul MCM L8, Ex.7; 2.0 hr; mean
observation.type: concentration at 2 hr (ng/mL)
Use ng/mL as the unit, but write only the number.

Inquiry: Looking for the measured concentration at 2 hr of CC(=O)NC1C(NC(=N)N)C=C(C(=O)O)OC1C(O)C(O)CO (stereo not shown) , can you help?
Reply text: 120

----------
test.summary: Intraduodenal bioavailability of zanamivir from glycerol and PBS formulations, enhancer pre-dose (Example 6)
experimental.setup: male, Sprague-Dawley, rat, in vivo, 1.5 mg/animal, Plasma concentration, ID 1.5 mg/animal, 50 µL PBS, 150 µL blank glycerol -2 hr; 0.5 hr; individual rats
observation.type: concentration at 0.5 hr (ng/mL)
Use ng/mL as the unit, but write only the number.

Inquiry: Looking for the measured concentration at 0.5 hr of CC(=O)NC1C(NC(=N)N)C=C(C(=O)O)OC1C(O)C(O)CO (stereo not shown) , can you help?
Reply text: 50.2

----------
test.summary: Intravenous and intraduodenal (bolus) bioavailability of zanamivir from Capmul MCM L8 25, 50, 75 µL (Example 7)
experimental.setup: male, Sprague-Dawley, rat, in vivo, 1.5 mg/animal, Plasma concentration, ID bolus 1.5 mg/animal, 50 µL Capmul MCM L8, Ex.7; 0.5 hr; mean
observation.type: concentration at 0.5 hr (ng/mL)
Use ng/mL as the unit, but write only the number.

Inquiry: Looking for the measured concentration at 0.5 hr of CC(=O)NC1C(NC(=N)N)C=C(C(=O)O)OC1C(O)C(O)CO (stereo not shown) [Zanamivir] , can you help?
Reply text: 1000

----------
test.summary: Intravenous and intraduodenal (bolus) bioavailability of zanamivir from Capmul MCM L8 25, 50, 75 µL (Example 7)
experimental.setup: male, Sprague-Dawley, rat, in vivo, 1.5 mg/animal, Plasma concentration, intraduodenal bolus, 75 μL Capmul MCM L8; 0.25 hr; mean of 3 rats
observation.type: concentration at 0.25 hr (ng/mL)
Use ng/mL as the unit, but write only the number.

Inquiry: Looking for the measured concentration at 0.25 hr of CC(=O)NC1C(NC(=N)N)C=C(C(=O)O)OC1C(O)C(O)CO (stereo not shown) , can you help?
Reply text: 2390

----------
test.summary: Intraduodenal bioavailability of zanamivir from glycerol and PBS formulations, enhancer pre-dose (Example 6)
experimental.setup: male, Sprague-Dawley, rat, in vivo, 1.5 mg/animal, Plasma concentration, ID 1.5 mg/animal, 150 µL Glycerol; 0.25 hr; individual rats
observation.type: concentration at 0.25 hr
Show the value, then the unit it is measured in.

Inquiry: Looking for the measured concentration at 0.25 hr of CC(=O)NC1C(NC(=N)N)C=C(C(=O)O)OC1C(O)C(O)CO (stereo not shown) [Zanamivir] , can you help?
Reply text: 109 ng/mL

----------
test.summary: Intravenous and intraduodenal (bolus) bioavailability of zanamivir from Capmul MCM L8 25, 50, 75 µL (Example 7)
experimental.setup: male, Sprague-Dawley, rat, in vivo, 1.5 mg/animal, Plasma concentration, ID bolus 1.5 mg/animal, 25 µL Capmul MCM L8; 0.83 hr; mean
observation.type: concentration at 0.83 hr (ng/mL)
Use ng/mL as the unit, but write only the number.

Inquiry: Looking for the measured concentration at 0.83 hr of CC(=O)NC1C(NC(=N)N)C=C(C(=O)O)OC1C(O)C(O)CO (stereo not shown) , can you help?
Reply text: 1650
